Target: T1, TNFR1 (Homo sapiens, UniProt P19438)
T1 chain: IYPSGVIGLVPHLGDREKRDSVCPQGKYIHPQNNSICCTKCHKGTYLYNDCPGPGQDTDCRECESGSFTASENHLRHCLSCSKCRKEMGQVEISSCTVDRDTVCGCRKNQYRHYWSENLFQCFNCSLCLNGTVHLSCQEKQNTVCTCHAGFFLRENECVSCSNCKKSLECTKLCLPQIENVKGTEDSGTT
Experiment: yeast display SC50
observed property: apparent Kd (screen) (nM)

binder="K73N (designed binder) SMEEEVEKAAKEYEKKKKEAIEKHLEKLKAKDKEAAERFLKELEEAAKEYAKDEAKTMSEEEAKRRAKKYKENVLLSELSEEEQKEIKEAEEKLVRTILKYVEEAAK" observed_property="apparent Kd (screen)" value_reported=13.8
binder="K16G (designed binder) SMEEEVEKAAKEYEKGKKEAIEKHLEKLKAKDKEAAERFLKELEEAAKEYAKDEAKTMSEEEAKRRAKKYKEKVLLSELSEEEQKEIKEAEEKLVRTILKYVEEAAK" observed_property="apparent Kd (screen)" value_reported=0.49
binder="K52Y (designed binder) SMEEEVEKAAKEYEKKKKEAIEKHLEKLKAKDKEAAERFLKELEEAAKEYAYDEAKTMSEEEAKRRAKKYKEKVLLSELSEEEQKEIKEAEEKLVRTILKYVEEAAK" observed_property="apparent Kd (screen)" value_reported=2.48
binder="E83H (designed binder) SMEEEVEKAAKEYEKKKKEAIEKHLEKLKAKDKEAAERFLKELEEAAKEYAKDEAKTMSEEEAKRRAKKYKEKVLLSELSEEHQKEIKEAEEKLVRTILKYVEEAAK" observed_property="apparent Kd (screen)" value_reported=1.27
binder="K85N (designed binder) SMEEEVEKAAKEYEKKKKEAIEKHLEKLKAKDKEAAERFLKELEEAAKEYAKDEAKTMSEEEAKRRAKKYKEKVLLSELSEEEQNEIKEAEEKLVRTILKYVEEAAK" observed_property="apparent Kd (screen)" value_reported=0.446
binder="M58G (designed binder) SMEEEVEKAAKEYEKKKKEAIEKHLEKLKAKDKEAAERFLKELEEAAKEYAKDEAKTGSEEEAKRRAKKYKEKVLLSELSEEEQKEIKEAEEKLVRTILKYVEEAAK" observed_property="apparent Kd (screen)" value_reported=22.2
binder="L99S (designed binder) SMEEEVEKAAKEYEKKKKEAIEKHLEKLKAKDKEAAERFLKELEEAAKEYAKDEAKTMSEEEAKRRAKKYKEKVLLSELSEEEQKEIKEAEEKLVRTISKYVEEAAK" observed_property="apparent Kd (screen)" value_reported=11.4
binder="E45I (designed binder) SMEEEVEKAAKEYEKKKKEAIEKHLEKLKAKDKEAAERFLKELEIAAKEYAKDEAKTMSEEEAKRRAKKYKEKVLLSELSEEEQKEIKEAEEKLVRTILKYVEEAAK" observed_property="apparent Kd (screen)" value_reported=2.73
binder="M2R (designed binder) SREEEVEKAAKEYEKKKKEAIEKHLEKLKAKDKEAAERFLKELEEAAKEYAKDEAKTMSEEEAKRRAKKYKEKVLLSELSEEEQKEIKEAEEKLVRTILKYVEEAAK" observed_property="apparent Kd (screen)" value_reported=0.539
binder="K27H (designed binder) SMEEEVEKAAKEYEKKKKEAIEKHLEHLKAKDKEAAERFLKELEEAAKEYAKDEAKTMSEEEAKRRAKKYKEKVLLSELSEEEQKEIKEAEEKLVRTILKYVEEAAK" observed_property="apparent Kd (screen)" value_reported=0.446
binder="L40M (designed binder) SMEEEVEKAAKEYEKKKKEAIEKHLEKLKAKDKEAAERFMKELEEAAKEYAKDEAKTMSEEEAKRRAKKYKEKVLLSELSEEEQKEIKEAEEKLVRTILKYVEEAAK" observed_property="apparent Kd (screen)" value_reported=0.593
binder="E42L (designed binder) SMEEEVEKAAKEYEKKKKEAIEKHLEKLKAKDKEAAERFLKLLEEAAKEYAKDEAKTMSEEEAKRRAKKYKEKVLLSELSEEEQKEIKEAEEKLVRTILKYVEEAAK" observed_property="apparent Kd (screen)" value_reported=7.07
binder="Y101M (designed binder) SMEEEVEKAAKEYEKKKKEAIEKHLEKLKAKDKEAAERFLKELEEAAKEYAKDEAKTMSEEEAKRRAKKYKEKVLLSELSEEEQKEIKEAEEKLVRTILKMVEEAAK" observed_property="apparent Kd (screen)" value_reported=2.25
binder="E5K (designed binder) SMEEKVEKAAKEYEKKKKEAIEKHLEKLKAKDKEAAERFLKELEEAAKEYAKDEAKTMSEEEAKRRAKKYKEKVLLSELSEEEQKEIKEAEEKLVRTILKYVEEAAK" observed_property="apparent Kd (screen)" value_reported=0.446
binder="I87F (designed binder) SMEEEVEKAAKEYEKKKKEAIEKHLEKLKAKDKEAAERFLKELEEAAKEYAKDEAKTMSEEEAKRRAKKYKEKVLLSELSEEEQKEFKEAEEKLVRTILKYVEEAAK" observed_property="apparent Kd (screen)" value_reported=5.84
binder="A47V (designed binder) SMEEEVEKAAKEYEKKKKEAIEKHLEKLKAKDKEAAERFLKELEEAVKEYAKDEAKTMSEEEAKRRAKKYKEKVLLSELSEEEQKEIKEAEEKLVRTILKYVEEAAK" observed_property="apparent Kd (screen)" value_reported=0.49
